The reported measurements were obtained from PubChem BioAssay (NCI).

# Test system: SNB-19 CNS
# assay_notes: NCI tumour cell line growth inhibition, 48 h
Listed here: items and their measured TGI.
outcome_measure: TGI

>>> result("COc1ccc(C(NS(=O)(=O)c2ccc(C)cc2)c2c(C(CBr)OC)c3ccccc3n2S(=O)(=O)c2ccccc2)cc1OC (stereo not drawn)")
"> 100 µM"
>>> result("CCCCCCCCCCCC(=O)NCc1ccc(OC(=O)CCCCCCCCCCC)c(OC)c1")
"> 100 µM"
>>> result("COc1cc(-c2nn(-c3cccc(NC(=O)Nc4cccc(C(F)(F)F)c4)c3)cc2-c2ccncc2)ccc1Cl")
"6.26 µM"

----------
# Tested on: HCT-116 colon
# assay_notes: NCI tumour cell line growth inhibition, 48 h
outcome_measure: TGI

>>> result("Cc1ccc(O)c(C2=CC3=NNC(=O)C3C(c3cccc(Br)c3)C2)c1 (centres undefined)")
"> 75 µM"
>>> result("CC12CCC([C@H](Nc3cc(C(F)(F)F)cc(C(F)(F)F)c3)C1=O)C2(C)C (some centres undefined)")
"> 100 µM"
>>> result("CC/C=C/C(CC)C/C(C)=C\\[C@]1(CC)C[C@H](CC)[C@H](CC(=O)O)OO1 (some centres undefined)")
"1.43 µM"
>>> result("O=[N+]([O-])c1nccn1COCCO")
"> 100 µM"
>>> result("CCCCCCCCCCCCCC(=O)NCO")
"> 100 µM"
>>> result("COc1cc(C(=O)N(C)N(C)C)cc(OC)c1OC")
"> 10 µM"
>>> result("Cc1c(C(=O)O)n2c(C)nnc2c2ccccc12")
"> 100 µM"
>>> result("CNCCCNc1nc2ccccc2c2c(=O)c3cc(F)ccc3sc12")
"2.92 µM"
>>> result("CCSc1n/c(=C\\c2ccc(N(C)C)cc2)c2nnnn12")
"> 100 µM"
>>> result("O=c1c2cc(I)ccc2nc(Sc2ccc([N+](=O)[O-])cc2[N+](=O)[O-])n1Cc1ccccc1")
"2.71 µM"
>>> result("O=c1ncc(I)cn1C1CC(O)C(CO)O1 (centres undefined)")
"> 3250 µM"
>>> result("c1ccc(-c2nnc(CCCCCCCCc3nnc(-c4ccccc4)o3)o2)cc1")
"> 100 µM"
>>> result("NC(Cc1ccccc1)P(=O)(O)O (centres undefined)")
"> 100 µM"
>>> result("COc1cc(O)c2c(c1)OCC1(Cc3cc(OC)c(OC)cc31)C2=O (centres undefined)")
"> 100 µM"
>>> result("C[CH2][Pb]([CH2]C)([CH2]C)[O]C(=O)COC")
"1.97 µM"
>>> result("C=C1C(O)C2C(=C(CCC3CC3)C13CC3)C(=O)C(C)(C)C2O (centres undefined)")
"> 100 µM"
>>> result("CCCCNC(=O)c1cc(S(=O)(=O)n2cc[nH]c2=O)c(SC)cc1Cl")
"> 100 µM"
>>> result("O=S1OC[C@H](CCCl)O1 (some centres undefined)")
"> 100 µM"
>>> result("Nc1ccccc1Nc1ccccc1C(=O)[O-].Nc1ccccc1Nc1ccccc1C(=O)[O-].[Ni+2]")
"> 100 µM"
>>> result("COc1cc([C@@H]2c3cc4c(cc3[C@@H](OC3OC5CO[C@@H](c6cccs6)OC5C(O)C3O)[C@H]3COC(=O)[C@H]23)OCO4)cc(OC)c1O (some centres undefined)")
"10.7 µM"
>>> result("COc1cc(-c2nc3ccc(N4CCN(C)CC4)cc3[nH]2)c(OC)c2[nH]c(CO)nc12")
"> 100 µM"
>>> result("Cn1c(-c2ccncc2)c(-c2ccc(F)cc2)c2ncccc21")
"> 25 µM"
>>> result("CCCCCCN1CCc2c(C)c(C#N)c3nc4ccccc4n3c21")
"> 100 µM"
>>> result("O=C(Nc1nnc(-c2ccc(Cl)cc2)o1)C(SC(=S)N1CCCCC1)c1ccccc1 (centres undefined)")
"34.8 µM"
>>> result("CC(=O)Nc1ccc(-c2nnc(SCC(=O)Nc3ccccc3)o2)cc1")
"> 100 µM"
>>> result("O=C(Nc1ccc(Cl)cc1)Nc1ccc(Cl)c(C(F)(F)F)c1")
"5.33 µM"
>>> result("COc1ccc(/C=C2\\COc3ccc(O)c(O)c3C2=O)cc1")
"6.85 µM"
>>> result("CC(=O)OC12c3ccccc3C1CCCC21OCCCO1 (centres undefined)")
"> 100 µM"
>>> result("O=C(CN1CCN(c2cccc(Cl)c2)CC1)N1CCc2c([nH]c3ccccc23)C1c1cccnc1 (centres undefined)")
"17 µM"

----------
# Test system: T-47D breast
# assay_notes: NCI tumour cell line growth inhibition, 48 h
Where a SMILES comes first, the peptide text is derived from it.
outcome_measure: TGI

>>> result("CCC(=O)OC1=C(c2ccccc2)Sc2ccc(Cl)cc2-n2cccc21")
"> 10 µM"
>>> result("Cc1nc2cc(-c3nn(C(C)C)c4ncnc(N)c34)ccc2o1")
"0.0158 µM"
>>> result("COc1cc(/C=C2\\C(=O)Nc3ccccc32)cc(OC)c1O")
"84.5 µM"
>>> result("O=C(NC(O)(C(F)(F)F)C(F)(F)F)c1ccccc1")
"> 100 µM"
>>> result("COC(=O)[C@@]12CN(C)[C@@H](C(C)(C)C)N1C(=O)OC2c1ccccc1 (stereo partly specified)")
"> 100 µM"
>>> result("Clc1c2ncccc2cc2n[nH]nc12")
"> 100 µM"
>>> result("C=CCc1cccc2cc(C(=O)NC3CCCCC3)c(=N)oc12")
"52.8 µM"
>>> result("c1ccc2nc(N/N=C3\\CCCCC3C3CCCCC3)ccc2c1 (stereo unspecified)")
"21.8 µM"
>>> result("COc1ccc(/C=C/C2C(C#N)=C(N)OC3=C2C(=O)CCC3)cc1 (stereo unspecified)")
"> 100 µM"
>>> result("COc1ccc(C(=S)N(C)NC(=O)CC(=O)NN(C)C(=S)c2ccc(OC)cc2)cc1")
"> 100 µM"
>>> result("CCCN1C/C(=C\\c2ccc(O)c(OC)c2)C(=O)/C(=C/c2ccc(O)c(OC)c2)C1")
"> 100 µM"
>>> result("CCn1c(=O)c2cn[nH]c2n(C)c1=O")
"> 100 µM"
>>> result("CCC(C)C(NC(=O)C(NC(=O)C(CC(N)=O)NC(=O)CN)C(C)O)C(=O)NC(C(=O)NC(C)C(=O)NC(C(=O)NC(CCC(=O)O)C(=O)NC(CC(C)C)C(=O)NC(CC(=O)O)C(=O)NC(C(=O)NC(Cc1ccc(O)cc1)C(=O)N1CCCC1C(=O)O)C(C)O)C(C)C)C(C)C (stereo unspecified) (H-GNTIVAVELDTYP-OH; configuration not given here)")
"> 50 µM"
>>> result("C=C(C(=O)OC)N1C(=O)CC(C)C1=O (stereo unspecified)")
"33.1 µM"
>>> result("Clc1ccc(Cn2c(CN3CCCC3)nc3ccccc32)cc1")
"83.5 µM"
>>> result("NCCCCCn1c2c(c3ccccc3c1=O)C(=O)c1ccccc1-2")
"2.14 µM"
>>> result("O=C1C(C=NC(=S)c2ccccc2)=C(O)c2ccccc21")
"> 100 µM"
>>> result("O=c1oc2ccc(Cl)cc2c2ccccc12")
"> 100 µM"
>>> result("COc1cc2cnc3c(c2c(OC)c1OC)Cc1cc2c(cc1-3)OCO2")
"> 100 µM"
>>> result("O=C(OCC1OC(n2cc(C(F)(F)F)c(=O)[nH]c2=O)CC1OC(=O)c1ccc([N+](=O)[O-])cc1)c1ccc([N+](=O)[O-])cc1 (stereo unspecified)")
"> 100 µM"
>>> result("CC12CCC([C@H](Nc3cc(C(F)(F)F)cc(C(F)(F)F)c3)C1=O)C2(C)C (stereo partly specified)")
"> 100 µM"
>>> result("OC(COc1cccc2ccccc12)CN1CCOCC1 (stereo unspecified)")
"> 100 µM"
>>> result("O=NN1CCNC1Cc1ccccc1 (stereo unspecified)")
"> 100 µM"
>>> result("OC(CC(CC(O)(C(F)(F)F)C(F)(F)F)=NN=C(CC(O)(C(F)(F)F)C(F)(F)F)CC(O)(C(F)(F)F)C(F)(F)F)(C(F)(F)F)C(F)(F)F")
"> 10 µM"
>>> result("Cc1ccc(CN(C)c2ccc(CO)c(Cl)c2)cc1")
"2.4 µM"
>>> result("Cc1ccc(NC(=O)CC(=O)N2N=C(N(C)c3ccccc3)CC2c2ccccc2)cc1 (stereo unspecified)")
"> 100 µM"
>>> result("CCOP(=O)(O)CC1OC(CO)C(O)C1O (stereo unspecified)")
"> 100 µM"
>>> result("C=CCCCCNC(=O)C[C@@H]1C2=C(CC[C@H]1O[Si](C)(C)C(C)(C)C)N1C(=O)CCC/C=C\\C1C2 (stereo partly specified)")
"29.8 µM"
>>> result("[2H]c1nc(C)nc([2H])c1-c1cc(NC[C@@H](C)c2cccc3c(C(=O)NC)ccnc23)ncn1")
"> 100 µM"
>>> result("O=c1c2ccccc2n2c(-c3ccc(O)cc3)nnc2n1-c1ccccc1")
"34.8 µM"
>>> result("CC1CC2(OC2C)C(=O)OC2CCN(C)C/C=C(/COC(=O)C1(C)O)C2=O (stereo unspecified)")
"> 100 µM"
